# Tested on: SW-620
# PROTOCOL: NCI tumour cell line growth inhibition, 48 h
Calls of active or inactive are those of the source. Rule as the data show it: active = GI50 up to about 1.1 µM and inactive = higher.
READOUT_TYPE: GI50

Examples with answers:
| COMPOUND | OBSERVED_MEASUREMENT |
| --- | --- |
| CCC/C(Cl)=N\OC(=O)Nc1ccc(F)c([N+](=O)[O-])c1 | 4.8 µM (inactive) |
| COC(=O)Cn1cnc2c(Cl)nc(Nc3ccccc3)nc21 | 65 µM (inactive) |

Now look at this one.
Reported GI50 of COC(=O)C(Cc1ccccc1)NC(=O)c1ccc(CNC(=S)NCc2cccc(CNC(=S)NCc3ccccc3)c2)cc1 (stereo not drawn) : > 32.9 µM (inactive)
